The reported measurements were obtained from patent US20100280084A1.

Experiment: Docetaxel clearance as a function of CYP1B1*3 genotype in 23 patients
Conditions: human, in vivo, patients homozygous for the variant allele; 95% CI 26.9 to 37.0 L/h; P=0.39
propertyName: clearance (mL/min)
Record the value in mL/min, omitting the unit from your answer.

Task: Param item = CC(=O)O[C@@]12CO[C@@H]1C[C@H](O)[C@@]1(C)C(=O)[C@H](O)C3=C(C)[C@@H](OC(=O)[C@H](O)[C@@H](NC(=O)OC(C)(C)C)c4ccccc4)C[C@@](O)([C@@H](OC(=O)c4ccccc4)[C@H]21)C3(C)C [docetaxel] ; retrieve measured clearance.
Result: 533

* * *

Experiment: Docetaxel clearance as a function of CYP1B1*3 genotype in 23 patients
Conditions: human, in vivo, patients homozygous or heterozygous for the wild-type allele; 95% CI 27.5 to 48.9 L/h; P=0.39
Experimental: To exclude the possibility that the observed decreased survival time for subjects carrying the CYP1B1*3/*3 variant was the result of altered exposure to docetaxel, the pharmacokinetic data generated in a previous study (15) in 23 patients treated with docetaxel as a function of CYP1B1*3 genotype was analyzed.
propertyName: clearance (mL/min)
Record the value in mL/min, omitting the unit from your answer.

Task: Param item = CC(=O)O[C@@]12CO[C@@H]1C[C@H](O)[C@@]1(C)C(=O)[C@H](O)C3=C(C)[C@@H](OC(=O)[C@H](O)[C@@H](NC(=O)OC(C)(C)C)c4ccccc4)C[C@@](O)([C@@H](OC(=O)c4ccccc4)[C@H]21)C3(C)C [docetaxel] ; retrieve measured clearance.
Result: 637
